// data source = patent US9878982B2

tested on: Mycobacterium smegmatis strain ATCC19420; test: In vitro efficacy test using Mycobacterium smegmatis strain ATCC19420 (MIC); type: cell-based; settings: CA-MHB + 0.02% Tween 80, 30° C., read after 72 hours
Item-by-item account of M. smegmatis ATCC19420 MIC
A number alone suffices; assume µg/mL.

COc1ncc(-c2csc(Br)c2)cc1C(c1ccccc1)C(O)(CCN(C)C)c1cccc2ccccc12 (centres unmarked): 0.125
COc1ncc(C2CCCC2)cc1C(c1ccccc1)C(O)(CCN(C)C)c1cccc2ccccc12 (centres unmarked) [Compound 64]: 0.5
COc1ncc(C2CCCCC2)cc1C(c1ccccc1)C(O)(CCN(C)C)c1cccc2ccccc12 (centres unmarked) [Compound 104]: 0.5

So, COc1ncc(C2CCCCC2)cc1C(c1ccccc1)C(O)(CCN(C)C)c1cccc2ccccc12 (centres unmarked) [Compound 103] ? Its M. smegmatis ATCC19420 MIC was 0.125

###

system: Vero Cell; assay: Vero cell cytotoxicity (IC50); assay type: cell-based; conditions: Chlorocebus sabaeus, Vero, African green monkey kidney cells
Listing: IC50 of selected molecules

COc1ncc(C(C)(C)C)cc1C(c1ccccc1)C(O)(CCN(C)C)c1cccc2ccccc12 (centres unmarked): 27.6 µg/mL
COc1ncc(-c2ccc(C#N)cc2)cc1C(c1ccccc1)C(O)(CCN(C)C)c1cccc2ccccc12 (centres unmarked): > 32 µg/mL
COc1ncc(-c2cccc(C#N)c2)cc1C(c1ccccc1)C(O)(CCN(C)C)c1cccc2ccccc12 (centres unmarked): > 32 µg/mL
COc1ccc(C(c2cc(-c3ccccc3)cnc2OC)C(O)(CCN(C)C)c2ccccc2)cc1 (centres unmarked): 24.3 µg/mL
COc1ncc(-c2ccccc2)cc1C(c1cccc(F)c1)C(O)(CCN(C)C)c1ccccc1 (centres unmarked): > 50 µg/mL
COc1ncc(-c2ccc(Cl)cc2)cc1C(c1ccccc1)C(O)(CCN(C)C)c1cccc2ccccc12 (centres unmarked): > 50 µg/mL
COc1ncc(-c2cccs2)cc1C(c1ccccc1)C(O)(CCN(C)C)c1cccc2ccccc12 (centres unmarked): 24.4 µg/mL

In the following, a different molecule is considered.
IC50 recorded for this molecule, COc1ncc(C2CCCC2)cc1C(c1ccccc1)C(O)(CCN(C)C)c1cccc2ccccc12 (centres unmarked) , is > 50 µg/mL

###

assay: Hela cell cytotoxicity (CC50); conditions: human, HeLa cells (human cervical cancer cells), CC50_Hela, half of the toxic concentration
Listing of recorded CC50 by entry.

COc1ncc(-c2ccc(Br)c(F)c2)cc1C(c1ccccc1)C(O)(CCN(C)C)c1cccc2ccccc12 (stereo not shown): > 64 mg/L

Kindly note the recorded CC50 for COc1cccc(C(c2cc(-c3ccccc3)cnc2OC)C(O)(CCN(C)C)c2cc(F)cc(F)c2)c1OC (stereo not shown) , which is 10.3 mg/L

Sure, the documented CC50 for COc1ncc(-c2cccs2)cc1C(c1ccccc1)C(O)(CCN(C)C)c1cccc2ccccc12 (stereo not shown) is > 64 mg/L

###

system: Vero Cell; assay: Vero cell cytotoxicity (IC50); type: cell-based; details: Chlorocebus sabaeus, Vero, African green monkey kidney cells
Listing of entries alongside the reported IC50.

As a guide, the following entries are already answered.
COc1ncc(-c2ccccc2)cc1C(c1ccc(F)cc1)C(O)(CCN(C)C)c1ccccc1 (stereo not shown) [Compound 70]: > 50 µg/mL
COc1ncc(-c2ccc(Cl)cc2)cc1C(c1ccccc1)C(O)(CCN(C)C)c1cccc(Br)c1 (single isomer, unassigned) [Compound 388]: > 32 µg/mL
COc1ncc(-c2ccc(Br)cc2)cc1C(c1ccccc1)C(O)(CCN(C)C)c1cccc2ccccc12 (stereo not shown) [Compound 133]: > 32 µg/mL

In plain terms, COc1cccc(C(c2cc(-c3ccccc3)cnc2OC)C(O)(CCN(C)C)c2cccc(Cl)c2)c1OC (stereo not shown) [Compound 209] has a documented IC50 of 27.3 µg/mL

IC50 in this record for COc1ncc(-c2ccc(Cl)cc2)cc1C(c1ccc(Cl)cc1)C(O)(CCN(C)C)c1cccc2ccccc12 (stereo not shown) [Compound 329] : > 32 µg/mL

// sample COc1ccc(-c2cnc(OC)c(C(c3ccccc3)C(O)(CCN(C)C)c3cccc4ccccc34)c2)cc1 (stereo not shown) [Compound 299] , its IC50 was > 32 µg/mL

Sure, the documented IC50 for COc1ncc(-c2ccccc2)cc1C(c1ccccc1F)C(O)(CCN(C)C)c1ccccc1 (stereo not shown) [Compound 51] is > 50 µg/mL

###

experiment: Hela cell cytotoxicity (CC50); conditions: human, HeLa cells (human cervical cancer cells), CC50_Hela, half of the toxic concentration
Readings of CC50 for the listed compounds
// units = µg/mL; emit number, no label

Reported CC50 of COc1ncc(N2CCOCC2)cc1C(c1ccccc1)C(O)(CCN(C)C)c1cccc2ccccc12 (stereo not shown) : 17.4

The compound COc1ncc(-c2ccc(Cl)cc2)cc1C(c1ccccc1)C(O)(CCN(C)C)c1ccc(Br)cc1 (single isomer, unassigned) showed CC50 equal to 24.1

###

Parameter: M. tuberculosis H37R LORA (MIC). Scope: all listed entries.
test system: M. tuberculosis H37R; experiment: microbe, parasite or virus in culture; assay type: cell-based, Mycobacterium tuberculosis
Write the value in µg/mL as a bare number.

COc1ncc(C2CCCC2)cc1C(c1ccccc1)C(O)(CCN(C)C)c1cccc2ccccc12 (stereo not shown) [Compound 63]: 1.41
COc1ncc(C2CCCCC2)cc1C(c1ccccc1)C(O)(CCN(C)C)c1cccc2ccccc12 (stereo not shown): 1.52
COc1ncc(-c2csc(Br)c2)cc1C(c1ccccc1)C(O)(CCN(C)C)c1cccc2ccccc12 (stereo not shown): 0.67

Continue with the next compound.
The compound listed as COc1ncc(C2CCCC2)cc1C(c1ccccc1)C(O)(CCN(C)C)c1cccc2ccccc12 (stereo not shown) [Compound 64] has a reported M. tuberculosis H37R LORA (MIC) of 3.06

###

assay: Hela cell cytotoxicity (CC50); settings: human, HeLa cells (human cervical cancer cells), CC50_Hela, half of the toxic concentration
attribute-measured: CC50

Per the records, this molecule ( COc1ncc(-c2ccc(C(F)(F)F)cc2)cc1C(c1ccccc1)C(O)(CCN(C)C)c1cccc2ccccc12 (stereo not drawn) ) has CC50 equal to > 64 µg/mL

Given item COc1ncc(-c2ccccc2)cc1C(c1ccccc1)C(O)(CCN(C)C)c1cccc2ccccc12 (stereo not drawn) , the value recorded as its CC50 is 30.4 µg/mL

Item: COc1ncc(-c2cccnc2)cc1C(c1ccccc1)C(O)(CCN(C)C)c1cccc2ccccc12 (stereo not drawn) | CC50: 10.3 µg/mL

Form field CC50, entry COc1cccc(C(c2cc(-c3ccccc3)cnc2OC)C(O)(CCN(C)C)c2cccc(Cl)c2)c1OC (stereo not drawn) : 13.3 µg/mL

For COc1ncc(-c2nccs2)cc1C(c1ccccc1)C(O)(CCN(C)C)c1cccc2ccccc12 (stereo not drawn) the molecule record lists CC50 as 19.3 µg/mL

// CC50 value for COc1ncc(-c2ccc(Br)cc2)cc1C(c1ccc(Cl)cc1)C(O)(CCN(C)C)c1cccc2ccccc12 (stereo not drawn) : > 64 µg/mL

###

test: Hela cell cytotoxicity (CC50); settings: human, HeLa cells (human cervical cancer cells), CC50_Hela, half of the toxic concentration
Each entry below carries its recorded CC50.
Give the value in µg/mL but do not write µg/mL after it.

COc1ncc(-c2ccoc2)cc1C(c1ccccc1)C(O)(CCN(C)C)c1cccc2ccccc12 (stereo not shown): 25.8
COc1ncc(-c2cnsc2)cc1C(c1ccccc1)C(O)(CCN(C)C)c1cccc2ccccc12 (stereo not shown): 28.8
COc1ncc(-c2ccc(Br)cc2)cc1C(c1ccccc1)C(O)(CCN(C)C)c1cccc(F)c1 (stereo not shown): 49.2
COc1ncc(-c2ccc(Cl)cc2)cc1C(c1ccccc1)C(O)(CCN(C)C)c1cccc(F)c1 (stereo not shown): 39.1
COc1cccc(C(c2cc(-c3ccccc3)cnc2OC)C(O)(CCN(C)C)c2ccccc2)c1F (stereo not shown): 13.1
COc1ncc(C(C)C)cc1C(c1ccccc1)C(O)(CCN(C)C)c1cccc2ccccc12 (stereo not shown): 27.6

Now look at this one.
Item: COc1ncc(-c2ccccc2)cc1C(c1ccccc1)C(O)(CCN(C)C)c1cc(F)cc(F)c1 (stereo not shown) | CC50: 28.9

###

system: Vero Cell; test: Vero cell cytotoxicity (IC50); format: cell-based; conditions: Chlorocebus sabaeus, Vero, African green monkey kidney cells
Readings of IC50 for the listed molecules

Some entries whose results are on file:
COc1ncc(-c2ccc(Cl)cc2)cc1C(c1ccccc1)C(O)(CCN(C)C)c1cccc(F)c1F (stereo not drawn) [Compound 287]: > 32 µg/mL
COc1ncc(C2CCCCC2)cc1C(c1ccccc1)C(O)(CCN(C)C)c1cccc2ccccc12 (stereo not drawn) [Compound 103]: 32.3 µg/mL
COc1cccc(C(c2cc(-c3ccccc3)cnc2OC)C(O)(CCN(C)C)c2cc(F)cc(F)c2)c1OC (stereo not drawn) [Compound 207]: 25.7 µg/mL
COc1ncc(-c2cccc(Br)c2)cc1C(c1ccccc1)C(O)(CCN(C)C)c1cccc2ccccc12 (stereo not drawn) [Compound 129]: > 32 µg/mL

Moving on to the next molecule.
Assay Vero Cell, sample COc1nc2ccc(Br)cc2cc1[C@@H](c1ccccc1)[C@@](O)(CCN(C)C)c1cccc2ccccc12 [Bedaquiline, reference compound] , IC50 read: > 32 µg/mL
